Attribution: paper PMC10381184

Tested on: human endocervical adenocarcinoma KB 3.1
Experiment: MTT-based cytotoxicity assay
Format: cell-based
Conditions: Homo sapiens, KB 3-1; KB3.1; starting concentration 37 µg/mL; read-out: IC50
From the text: […]
As shown below, each of these molecules has a reported pIC50 value.
To interpret pIC50, take it as minus log10 of a concentration measured in moles per litre.

Observe how each entry below is paired with its result.
molecule	pIC50
CCC(C)C=C(C)C=CC1=CC2=C(Cl)C(=O)C3(C)OC(=O)C(C(C)O)C3C2=CO1 (stereo not shown) [Compound 7, isochromophilonol A1/A2]	5.28
CC(C)=CCc1ccc(O)c(C=O)c1C(=O)c1cc(C)cc2c1OC(C(C)(C)O)CO2 (stereo not shown) [Compound 6, tenellone B]	4.70
CC(C)=CCc1ccc(O)c2c1C(O)(c1cc(C)cc3c1O[C@H](C(C)(C)O)CO3)NC2=O (stereo partly shown) [Compound 4, diaporisoindole F1/F2]	4.50

Task: Notebook: pull reported pIC50 for human endocervical adenocarcinoma KB 3.1, entry CC(C)=CCc1ccc(O)c2c1C(O)(c1cc(C)cc3c1O[C@H](C(C)(C)O)CO3)OC2 (mixture of isomers) [Compound 3, isoprenylisobenzofuran C1/C2]
Output: 4.48

Task: Query CC(C)=CCc1ccc(O)c2c1C(c1cc(C)cc3c1O[C@H](C(C)(C)O)CO3)NC2=O (mixture of isomers) [Compound 5, diaporisoindole A/B] next
Output: 4.66

* * *

As shown below, each of these compounds has a reported pIC50 value.
System: mouse fibroblasts L929
Assay: MTT-based cytotoxicity assay
Format: cell-based
Conditions: Mus musculus, starting concentration 37 µg/mL, read-out: IC50
To interpret pIC50, take it as minus log10 of a concentration measured in moles per litre.

Observe how each entry below is paired with its result.
compound	metric_name	readout_value
CCC(C)C=C(C)C=CC1=CC2=C(Cl)C(=O)C3(C)OC(=O)C(C(C)O)C3C2=CO1 (stereo not shown) [Compound 7, isochromophilonol A1/A2]	pIC50	4.89
CC(C)=CCc1ccc(O)c2c1C(O)(c1cc(C)cc3c1O[C@H](C(C)(C)O)CO3)OC2 (mixture of isomers) [Compound 3, isoprenylisobenzofuran C1/C2]	pIC50	4.29
CC(C)=CCc1ccc(O)c(C=O)c1C(=O)c1cc(C)cc2c1OC(C(C)(C)O)CO2 (stereo not shown) [Compound 6, tenellone B]	pIC50	4.31

Task: What measured pIC50 goes with CC(C)=CCc1ccc(O)c2c1C(O)(c1cc(C)cc3c1O[C@H](C(C)(C)O)CO3)NC2=O (stereo partly shown) [Compound 4, diaporisoindole F1/F2] ?
Output: 4.23

Task: Query CC(C)=CCc1ccc(O)c2c1C(c1cc(C)cc3c1O[C@H](C(C)(C)O)CO3)NC2=O (mixture of isomers) [Compound 5, diaporisoindole A/B] next
Output: 4.26
